Each recorded value in this set is attributed to patent USRE47223.

Target: T1, 5-domain TAT10772 (human)
T1 construct: Recombinant portion of the extracellular domain, expressed in CHO cells; also called 5-mucin domain
T1 chain: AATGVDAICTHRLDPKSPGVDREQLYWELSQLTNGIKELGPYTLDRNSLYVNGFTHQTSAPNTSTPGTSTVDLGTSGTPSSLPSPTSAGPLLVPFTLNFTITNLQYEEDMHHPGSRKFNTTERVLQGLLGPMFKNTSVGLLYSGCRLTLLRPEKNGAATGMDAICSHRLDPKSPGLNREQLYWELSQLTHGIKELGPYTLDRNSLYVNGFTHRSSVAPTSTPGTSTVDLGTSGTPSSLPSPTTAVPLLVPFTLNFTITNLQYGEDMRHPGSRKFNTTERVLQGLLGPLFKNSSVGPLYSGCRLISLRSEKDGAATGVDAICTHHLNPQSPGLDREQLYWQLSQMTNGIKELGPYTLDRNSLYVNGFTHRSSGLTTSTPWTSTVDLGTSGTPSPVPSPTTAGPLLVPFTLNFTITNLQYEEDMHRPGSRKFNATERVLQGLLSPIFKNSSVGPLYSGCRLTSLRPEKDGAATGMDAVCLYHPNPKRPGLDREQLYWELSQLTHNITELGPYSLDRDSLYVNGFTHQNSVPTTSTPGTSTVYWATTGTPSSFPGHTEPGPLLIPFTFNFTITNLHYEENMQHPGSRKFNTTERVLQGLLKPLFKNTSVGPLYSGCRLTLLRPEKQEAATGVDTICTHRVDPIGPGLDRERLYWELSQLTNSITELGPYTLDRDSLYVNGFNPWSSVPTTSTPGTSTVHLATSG
Assay: Biacore SPR, 5′-domain TAT10772 over immobilized IgG
EXPERIMENTAL_READOUT: koff (s⁻¹)
Report only the number, with the unit s⁻¹ understood.

Study these solved cases before continuing.
Which measured koff value corresponds to 3A5.F-graft (SEQ ID NO: 13), IgG (antibody, V domains shown, IgG) VH: EVQLVESGGGLVQPGGSLRLSCAASGYSITNDYAWNWVRQAPGKGLEWVGYINYSGYTTYNPSLKSRFTISRDNSKNTFYLQMNSLRAEDTAVYYCARWDGGLTYWGQGTLVTVSS VL: DIQMTQSPSSLSASVGDRVTITCKASDLIHNWLAWYQQKPGKAPKLLIYGATSLETGVPSRFSGSGSGTDFTLTISSLQPEDFATYYCQQYWTTPFTFGQGTKVEIKR ?
0.000292

Request: 3A5 chimera (mu3A5-H; SEQ ID NO: 11) (antibody, V domains shown, IgG; also called chimeric 3A5; chimeric antibody) VH: DVQLQESGPGLVNPSQSLSLTCTVTGYSITNDYAWNWIRQFPGNKLEWMGYINYSGYTTYNPSLKSRISITRDTSKNQFFLHLNSVTTEDTATYYCARWDGGLTYWGQGTLVTVSA VL: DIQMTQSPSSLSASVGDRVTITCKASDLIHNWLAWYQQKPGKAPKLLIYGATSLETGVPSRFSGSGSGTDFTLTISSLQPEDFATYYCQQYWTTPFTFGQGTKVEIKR
0.000121

We now examine a further binder.
Which measured koff value corresponds to 3A5v3 (SEQ ID NO: 200) (antibody, V domains shown, Humanized IgG) VH: EVQLVESGGGLVQPGGSLRLSCAASGYSITNDYAWNWVRQAPGKGLEWVGYINYSGYTTYNPSLKSRFTISRDTSKNTFYLQMNSLRAEDTAVYYCARWASGLSYWGQGTLVTVSS VL: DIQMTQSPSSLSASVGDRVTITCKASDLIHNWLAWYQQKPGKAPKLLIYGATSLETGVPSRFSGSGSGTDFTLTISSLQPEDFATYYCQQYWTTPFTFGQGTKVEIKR ?
0.00013
